Parameter Dmax: see the listing below.
target: HiBit-BRG1 fusion protein (Homo sapiens); construct: expressed in transfected cells; assay: HiBiT-BRG1 cell-based degradation assay (Nano-Glo HiBiT Lytic Detection, 24 h); conditions: HeLa cell line expressing HiBit-BRG1 and LgBit, read-out: BRG1 HiBit Degradation Maximum (%)
Sequence (P51532 whole entry, the tested form may be a part): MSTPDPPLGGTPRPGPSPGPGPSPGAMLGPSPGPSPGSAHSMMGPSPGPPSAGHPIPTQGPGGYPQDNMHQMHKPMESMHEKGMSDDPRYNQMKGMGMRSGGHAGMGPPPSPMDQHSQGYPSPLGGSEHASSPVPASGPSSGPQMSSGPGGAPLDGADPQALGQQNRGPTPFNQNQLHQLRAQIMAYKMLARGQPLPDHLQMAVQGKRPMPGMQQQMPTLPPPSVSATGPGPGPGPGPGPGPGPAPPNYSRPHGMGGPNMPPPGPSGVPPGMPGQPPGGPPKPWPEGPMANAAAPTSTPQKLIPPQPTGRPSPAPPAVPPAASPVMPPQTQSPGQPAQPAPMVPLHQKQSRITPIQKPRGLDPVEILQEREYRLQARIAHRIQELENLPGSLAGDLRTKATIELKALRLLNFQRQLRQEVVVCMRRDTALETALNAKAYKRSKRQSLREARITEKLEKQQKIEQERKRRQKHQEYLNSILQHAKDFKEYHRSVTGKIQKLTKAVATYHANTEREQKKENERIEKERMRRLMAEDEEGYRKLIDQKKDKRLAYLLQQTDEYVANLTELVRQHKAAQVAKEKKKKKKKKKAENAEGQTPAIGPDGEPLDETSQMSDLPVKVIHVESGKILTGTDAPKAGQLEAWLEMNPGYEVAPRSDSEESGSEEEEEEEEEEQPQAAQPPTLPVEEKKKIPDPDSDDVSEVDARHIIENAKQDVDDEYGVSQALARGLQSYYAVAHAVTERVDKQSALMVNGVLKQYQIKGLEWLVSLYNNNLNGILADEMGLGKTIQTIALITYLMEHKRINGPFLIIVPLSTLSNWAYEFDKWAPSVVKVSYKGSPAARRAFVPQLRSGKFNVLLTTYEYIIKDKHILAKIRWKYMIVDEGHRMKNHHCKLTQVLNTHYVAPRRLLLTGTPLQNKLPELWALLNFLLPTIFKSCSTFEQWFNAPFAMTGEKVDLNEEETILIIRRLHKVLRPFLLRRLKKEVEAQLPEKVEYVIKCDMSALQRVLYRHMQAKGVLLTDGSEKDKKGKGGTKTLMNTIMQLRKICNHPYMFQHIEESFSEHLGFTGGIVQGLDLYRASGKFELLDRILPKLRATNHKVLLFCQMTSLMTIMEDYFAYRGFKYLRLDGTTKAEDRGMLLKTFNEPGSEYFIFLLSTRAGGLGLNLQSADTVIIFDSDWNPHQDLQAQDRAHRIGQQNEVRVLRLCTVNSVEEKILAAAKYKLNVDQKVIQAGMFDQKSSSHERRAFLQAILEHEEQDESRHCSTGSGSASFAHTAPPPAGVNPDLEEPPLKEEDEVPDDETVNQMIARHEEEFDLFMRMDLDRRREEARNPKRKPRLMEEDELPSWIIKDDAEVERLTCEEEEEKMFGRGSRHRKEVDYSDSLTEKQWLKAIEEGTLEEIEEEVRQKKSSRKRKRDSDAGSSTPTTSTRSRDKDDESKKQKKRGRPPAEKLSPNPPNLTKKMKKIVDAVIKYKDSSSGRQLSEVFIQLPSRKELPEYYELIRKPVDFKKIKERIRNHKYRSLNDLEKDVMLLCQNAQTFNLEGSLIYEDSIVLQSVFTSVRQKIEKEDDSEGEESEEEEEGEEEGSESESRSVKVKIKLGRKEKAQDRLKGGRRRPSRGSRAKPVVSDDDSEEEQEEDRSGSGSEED
Experimental readout: Dmax

Molecule	Experimental readout	Value measured
Cc1ncsc1-c1ccc([C@H](C)NC(=O)[C@@H]2C[C@@H](O)CN2C(=O)[C@@H](c2cc(OCCNC(=O)[C@H]3C[C@@]4(Cc5cc(-c6ccccc6O)nnc5N4)C3)no2)C(C)C)cc1 (racemic)	Dmax	< 50%
Cc1ncsc1-c1ccc([C@H](C)NC(=O)[C@@H]2C[C@@H](O)CN2C(=O)[C@@H](c2cc(OCCNC3CC[C@]34C[C@H](c3cc5cc(-c6ccccc6O)nnc5[nH]3)C4)no2)C(C)C)cc1 (mixture of isomers)	Dmax	< 50%

====

target: HiBit-BRM fusion protein (Homo sapiens); construct: expressed in transfected cells; assay: HiBiT-BRM cell-based degradation assay (Nano-Glo HiBiT Lytic Detection, 24 h); settings: HeLa cell line expressing HiBiT-BRM, read-out: BRM HiBit Degradation IC50
Sequence (P51531 whole entry, the tested form may be a part): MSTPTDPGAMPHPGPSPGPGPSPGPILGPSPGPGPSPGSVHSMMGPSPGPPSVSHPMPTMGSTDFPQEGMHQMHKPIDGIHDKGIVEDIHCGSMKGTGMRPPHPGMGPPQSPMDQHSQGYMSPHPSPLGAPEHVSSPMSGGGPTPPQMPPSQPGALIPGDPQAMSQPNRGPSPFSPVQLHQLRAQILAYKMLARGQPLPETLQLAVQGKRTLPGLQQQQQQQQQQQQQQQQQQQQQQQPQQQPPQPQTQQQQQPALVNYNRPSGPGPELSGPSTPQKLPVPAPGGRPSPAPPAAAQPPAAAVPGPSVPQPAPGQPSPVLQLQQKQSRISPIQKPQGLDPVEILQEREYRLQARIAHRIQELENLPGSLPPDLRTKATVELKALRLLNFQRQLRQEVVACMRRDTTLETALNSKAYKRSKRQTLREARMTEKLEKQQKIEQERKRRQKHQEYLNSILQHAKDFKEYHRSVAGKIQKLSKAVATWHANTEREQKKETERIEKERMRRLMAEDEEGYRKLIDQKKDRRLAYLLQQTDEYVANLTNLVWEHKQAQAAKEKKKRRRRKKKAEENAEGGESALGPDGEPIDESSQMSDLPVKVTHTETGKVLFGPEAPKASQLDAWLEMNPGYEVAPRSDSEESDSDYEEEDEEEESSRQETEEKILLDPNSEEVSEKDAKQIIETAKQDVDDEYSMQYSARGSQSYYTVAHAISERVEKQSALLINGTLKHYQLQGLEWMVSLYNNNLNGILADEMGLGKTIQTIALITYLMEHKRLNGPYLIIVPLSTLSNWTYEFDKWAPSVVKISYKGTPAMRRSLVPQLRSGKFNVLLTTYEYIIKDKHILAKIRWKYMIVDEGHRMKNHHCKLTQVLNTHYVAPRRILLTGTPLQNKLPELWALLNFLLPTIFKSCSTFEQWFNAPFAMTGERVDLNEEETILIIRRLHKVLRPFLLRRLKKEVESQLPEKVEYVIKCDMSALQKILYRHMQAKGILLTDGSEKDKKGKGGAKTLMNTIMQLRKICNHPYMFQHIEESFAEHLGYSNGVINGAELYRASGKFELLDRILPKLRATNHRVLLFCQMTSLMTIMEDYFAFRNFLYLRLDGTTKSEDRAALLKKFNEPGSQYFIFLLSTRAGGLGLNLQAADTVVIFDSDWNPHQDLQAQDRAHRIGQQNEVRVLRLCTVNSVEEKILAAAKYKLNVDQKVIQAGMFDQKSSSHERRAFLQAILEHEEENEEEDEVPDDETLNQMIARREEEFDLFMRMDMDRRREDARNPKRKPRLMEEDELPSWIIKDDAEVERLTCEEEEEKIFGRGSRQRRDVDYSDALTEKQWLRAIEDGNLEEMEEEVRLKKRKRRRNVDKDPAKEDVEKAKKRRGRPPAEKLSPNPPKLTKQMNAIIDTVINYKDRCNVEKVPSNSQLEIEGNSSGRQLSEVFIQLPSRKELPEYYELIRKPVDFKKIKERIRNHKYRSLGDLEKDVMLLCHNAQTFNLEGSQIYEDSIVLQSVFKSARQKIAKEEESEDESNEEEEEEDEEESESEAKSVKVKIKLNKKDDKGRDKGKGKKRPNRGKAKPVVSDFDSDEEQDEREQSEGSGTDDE

Molecule	DC50
Cc1ncsc1-c1ccc([C@H](C)NC(=O)[C@@H]2C[C@@H](O)CN2C(=O)[C@@H](c2cc(OCC(=O)N(C)[C@H]3CCc4[nH]c5nnc(-c6ccccc6O)cc5c4C3)no2)C(C)C)cc1 [Compound 106]	> 10 nM
Cc1ncsc1-c1ccc([C@H](C)NC(=O)[C@@H]2C[C@@H](O)CN2C(=O)[C@@H](NC(=O)CCCCCCCCCCCCCC(=O)N2CC(c3cc4cc(-c5ccccc5O)nnc4[nH]3)C2)C(C)(C)C)cc1 [Compound 11]	> 100 nM
Cc1ncsc1-c1ccc([C@H](C)NC(=O)[C@@H]2C[C@@H](O)CN2C(=O)[C@@H](c2cc(OCCN3CC(c4cc5cc(-c6cc(F)cc(Cl)c6O)nnc5[nH]4)C3)no2)C(C)C)cc1 (racemic) [Compound 287]	> 100 nM
Cc1ncsc1-c1ccc([C@H](C)NC(=O)[C@@H]2C[C@@H](O)CN2C(=O)[C@@H](c2cc(OCCN3CCC[C@@H](c4cc5cc(-c6ccccc6O)nnc5[nH]4)C3)no2)C(C)C)cc1 (racemic) [Compound 279]	> 10 nM
Cc1ncsc1-c1ccc([C@H](C)NC(=O)[C@@H]2C[C@@H](O)CN2C(=O)[C@@H](NC(=O)CCCCCCCCCCC(=O)N2CC(c3cc4cc(-c5ccccc5O)nnc4[nH]3)C2)C(C)(C)C)cc1 [Compound 13]	> 100 nM
Cc1ncsc1-c1ccc([C@H](C)NC(=O)[C@@H]2C[C@@H](O)CN2C(=O)[C@@H](c2cc(OCCN3CCC(C)(c4cc5cc(-c6ccccc6O)nnc5[nH]4)CC3)no2)C(C)C)cc1 (racemic) [Compound 276]	> 10 nM
Cc1ncsc1-c1ccc([C@H](C)NC(=O)[C@@H]2C[C@@H](O)CN2C(=O)[C@@H](c2cc(C3CCN(C(=O)[C@H]4C[C@@]5(Cc6cc(-c7ccccc7O)nnc6N5)C4)CC3)no2)C(C)C)cc1 (racemic) [Compound 69]	> 10 nM
Cc1ncsc1-c1ccc([C@H](C)NC(=O)[C@@H]2C[C@@H](O)CN2C(=O)[C@@H](c2cc(OCCN3CCC(N4CC(c5[nH]c6nnc(-c7ccccc7O)cc6c5C)C4)CC3)no2)C(C)C)cc1 (racemic) [Compound 271]	< 10 nM
Cc1ncsc1-c1ccc([C@H](C)NC(=O)[C@@H]2C[C@@H](O)CN2C(=O)[C@@H](c2cc(OCCN3CCC(O)(c4cc5cc(-c6ccccc6O)nnc5[nH]4)CC3)no2)C(C)C)cc1 (racemic) [Compound 277]	> 100 nM
